- testName: Intrinsic clearance in human liver microsomes
- Type: ADME, Microsome
- testParameters: read-out: CLH
measuredEndpoint: microsomal CLint

Request: // returns reported microsomal CLint for input CCn1cnc2c(-c3ccc(F)c(-c4ccc(S(=O)(=O)CC)cc4OC)c3)cnnc21
Result: < 20 µL/min/mg

---

- targetOfAssay: Gamma-aminobutyric acid receptor subunit alpha-1 (Homo sapiens) (UniProt P14867)
- Sequence (P14867 whole entry): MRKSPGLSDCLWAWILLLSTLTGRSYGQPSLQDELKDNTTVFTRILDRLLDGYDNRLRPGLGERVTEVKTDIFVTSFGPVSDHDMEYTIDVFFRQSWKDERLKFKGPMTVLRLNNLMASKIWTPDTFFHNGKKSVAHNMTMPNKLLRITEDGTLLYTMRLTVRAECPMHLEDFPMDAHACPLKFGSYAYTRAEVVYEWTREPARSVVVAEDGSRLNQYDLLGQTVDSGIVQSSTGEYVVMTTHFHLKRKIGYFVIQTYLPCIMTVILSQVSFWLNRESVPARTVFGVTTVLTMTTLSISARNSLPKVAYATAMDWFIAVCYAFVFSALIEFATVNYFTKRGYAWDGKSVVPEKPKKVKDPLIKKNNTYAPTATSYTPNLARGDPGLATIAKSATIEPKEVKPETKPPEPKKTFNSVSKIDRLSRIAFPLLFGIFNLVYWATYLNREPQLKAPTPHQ
- testName: Binding affinity to GABA-A alpha1 (unknown origin) assessed as increase in induced current relative to control
Can you tell me fold change (FC) for the items I'm about to list?
Give bare numbers.

Illustrative cases are given below, each with its answer.
[
  {
    "smilesRepresentation": "C#Cc1ccc2c(c1)C(c1ccccc1F)=N[C@H](C)c1c(C(=O)N(C)C)ncn1-2",
    "targetOfAssay": "Gamma-aminobutyric acid receptor subunit alpha-1 (Homo sapiens) (UniProt P14867)",
    "fold change (FC)": 0.65
  },
  {
    "smilesRepresentation": "C#Cc1ccc2c(c1)C(c1ccccc1F)=N[C@@H](C)c1c(C(=O)OCC)ncn1-2",
    "targetOfAssay": "Gamma-aminobutyric acid receptor subunit alpha-1 (Homo sapiens) (UniProt P14867)",
    "fold change (FC)": 0.3
  },
  {
    "smilesRepresentation": "CCn1cnc2c(-c3ccc(F)c(-c4ccc(S(=O)(=O)CC)cc4OC)c3)cnnc21",
    "targetOfAssay": "Gamma-aminobutyric acid receptor subunit alpha-1 (Homo sapiens) (UniProt P14867)",
    "fold change (FC)": 0.11
  }
]

Hi! Can you tell me fold change (FC) for each of these molecules?
1. C#Cc1ccc2c(c1)C(c1ccccc1F)=N[C@H](C)c1c(C(=O)NC)ncn1-2
2. CC(C)(O)c1ccc2c(c1)ncn2-c1cccc(-c2cc(C#N)ccc2Cl)n1

Result:
[0.11, -0.1]

---

- targetOfAssay: Gamma-aminobutyric acid receptor subunit alpha-5 (Homo sapiens)
- Sequence (whole entry): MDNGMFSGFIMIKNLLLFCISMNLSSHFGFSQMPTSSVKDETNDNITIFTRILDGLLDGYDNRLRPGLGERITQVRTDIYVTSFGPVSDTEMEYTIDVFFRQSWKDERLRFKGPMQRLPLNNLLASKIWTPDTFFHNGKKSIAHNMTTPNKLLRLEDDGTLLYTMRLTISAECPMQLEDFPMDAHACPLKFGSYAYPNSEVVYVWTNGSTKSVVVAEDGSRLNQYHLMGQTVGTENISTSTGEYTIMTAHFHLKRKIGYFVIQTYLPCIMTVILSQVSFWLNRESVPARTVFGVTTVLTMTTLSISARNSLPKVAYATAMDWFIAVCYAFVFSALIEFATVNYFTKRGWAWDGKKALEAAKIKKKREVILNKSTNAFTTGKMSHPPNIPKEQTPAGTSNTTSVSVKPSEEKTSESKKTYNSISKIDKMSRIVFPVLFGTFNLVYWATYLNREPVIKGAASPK
- testName: Binding affinity to GABA-A alpha5 (unknown origin) assessed as increase in induced current relative to control
Class assignment keyed on fold change (FC), ranges bucket A (below 0.4), bucket B (0.4 to below 1), bucket C (1 or more)

[
  {
    "compound": "CCn1cnc2c(-c3ccc(F)c(-c4ccc(S(=O)(=O)CC)cc4OC)c3)cnnc21 [DARIGABAT]",
    "classAssignment": "bucket B"
  },
  {
    "compound": "C#Cc1ccc2c(c1)C(c1ccccn1)=NCc1c(C(=O)OCC)ncn1-2",
    "classAssignment": "bucket A"
  },
  {
    "compound": "CC(C)(O)c1ccc2c(c1)ncn2-c1cccc(-c2ccccc2C#N)c1",
    "classAssignment": "bucket B"
  },
  {
    "compound": "C#Cc1ccc2c(c1)C(c1ccccc1F)=N[C@H](C)c1c(C(=O)N(C)C)ncn1-2",
    "classAssignment": "bucket C"
  },
  {
    "compound": "C#Cc1ccc2c(c1)C(c1ccccc1F)=N[C@H](C)c1c(C(=O)NC3CC3)ncn1-2",
    "classAssignment": "bucket C"
  },
  {
    "compound": "C#Cc1ccc2c(c1)C(c1ccccc1F)=N[C@@H](C)c1c(C(=O)OCC)ncn1-2",
    "classAssignment": "bucket C"
  }
]

Request: Exam item: assign CC(C)(O)c1cnn2c(-c3ccc(F)c(-c4c(F)cccc4C#N)c3)cnc2n1 to the correct category.
Result: bucket A

Request: Exam item: assign C#Cc1ccc2c(c1)C(c1ccccc1F)=N[C@H](C)c1c(C(=O)NC)ncn1-2 to the correct category.
Result: bucket C

Request: Exam item: assign C#Cc1ccc2c(c1)C(c1ccccc1F)=N[C@H](C)c1c(C(=O)OCC)ncn1-2 to the correct category.
Result: bucket C

Request: Exam item: assign CC(C)(O)c1ccc2c(c1)ncn2-c1cccc(-c2cc(C#N)ccc2Cl)n1 to the correct category.
Result: bucket A
